Value source: ChEMBL document CHEMBL1201862

# System: UO-31
# ASSAY_DETAILS: NCI tumour cell line growth inhibition, 48 h
The whole screen tested about 57,000 sequences, of which about 3,400 (6%) were called active. The list is a sample of the results. Results with a measured potency or affinity are listed apart.
Here, each record is paired with measured GI50 data.
State just the number; it will be interpreted in µM.

>>> print(df.to_string())
                                  substance  target_or_system  endpoint_label  measured_value
0  [Bis(aminomethyl)tetramethylenesilane]dichloropaltinum(II), CHEMBL2146205             UO-31            GI50            22.3
1  mu-(1,7-nanodiamine-N,N')bis-(cis-aminedichloroplatimum (II)), CHEMBL2146215             UO-31            GI50            44.8
2                    CISPLATIN, CHEMBL11359             UO-31            GI50            3.36
3  [Bis(aminomethyl)ethylmethylsilane]tetrachloroplatinum(IV), CHEMBL2146192             UO-31            GI50            7.48

We now examine a further substance.
Field GI50 (UO-31), entry [Bis(aminomethyl)tetramethylenesilane]tetrachloropaltinum(IV), CHEMBL2146189 : 3.73
